# assayRemarks: clinical
# Set-up: species or system human
# cond: human, in vivo, iv, 300 mg
Positions of bridges follow the written chain, without caps; N, C: chain ends. Non-standard residues stand in square brackets, D forms with d. Residues, ends and D or L forms follow the SMILES beside them. *: point of attachment. X1 = NC[C@@H](CC(=O)*)c1cccc(Cl)c1; Dab = NCC[C@H](N)C(=O)O; Dap = NC[C@H](N)C(=O)O
readoutName: Tmax (h)
Numbers only; they are read as h.

Inquiry: What value of Tmax has been recorded for this entry: CC(C)C[C@@H]1NC(=O)[C@@H](Cc2ccccc2)NC(=O)[C@H](CCN)NC(=O)[C@@H](NC(=O)[C@H](CN)NC(=O)[C@@H](NC(=O)C[C@H](CN)c2cccc(Cl)c2)[C@@H](C)O)CCNC(=O)[C@H]([C@@H](C)O)NC(=O)[C@H](CCN)NC(=O)[C@H](CCN)NC1=O [SPR206] (X1-T[Dap][Dab][Dab][dF]L[Dab][Dab]T; lactam 3-C (inferred))
Reply text: 1.1

* * *

# assayRemarks: clinical
# Parameters: species or system human
# cond: human, in vivo, iv, 400 mg, Half-life
Positions of bridges follow the written chain, without caps; N, C: chain ends. Non-standard residues stand in square brackets, D forms with d. Residues, ends and D or L forms follow the SMILES beside them. *: point of attachment. X1 = NC[C@@H](CC(=O)*)c1cccc(Cl)c1; Dab = NCC[C@H](N)C(=O)O; Dap = NC[C@H](N)C(=O)O
readoutName: half-life
Give the figure together with its unit, number first.

Inquiry: What value of half-life has been recorded for this entry: CC(C)C[C@@H]1NC(=O)[C@@H](Cc2ccccc2)NC(=O)[C@H](CCN)NC(=O)[C@@H](NC(=O)[C@H](CN)NC(=O)[C@@H](NC(=O)C[C@H](CN)c2cccc(Cl)c2)[C@@H](C)O)CCNC(=O)[C@H]([C@@H](C)O)NC(=O)[C@H](CCN)NC(=O)[C@H](CCN)NC1=O [SPR206] (X1-T[Dap][Dab][Dab][dF]L[Dab][Dab]T; lactam 3-C (inferred))
Reply text: 3.7 h

* * *

# assayRemarks: clinical
# cond: human, in vivo, 400 mg, CLR (renal clearance)
Positions of bridges follow the written chain, without caps; N, C: chain ends. Non-standard residues stand in square brackets, D forms with d. Residues, ends and D or L forms follow the SMILES beside them. *: point of attachment. X1 = NC[C@@H](CC(=O)*)c1cccc(Cl)c1; Dab = NCC[C@H](N)C(=O)O; Dap = NC[C@H](N)C(=O)O
readoutName: CL renal (mL/min)
Numbers only; they are read as mL/min.

Inquiry: What value of CL renal has been recorded for this entry: CC(C)C[C@@H]1NC(=O)[C@@H](Cc2ccccc2)NC(=O)[C@H](CCN)NC(=O)[C@@H](NC(=O)[C@H](CN)NC(=O)[C@@H](NC(=O)C[C@H](CN)c2cccc(Cl)c2)[C@@H](C)O)CCNC(=O)[C@H]([C@@H](C)O)NC(=O)[C@H](CCN)NC(=O)[C@H](CCN)NC1=O [SPR206] (X1-T[Dap][Dab][Dab][dF]L[Dab][Dab]T; lactam 3-C (inferred))
Reply text: 32.8

* * *

# assayRemarks: clinical
# Design: species or system human
# cond: human, in vivo, iv, 50 mg, CL
Positions of bridges follow the written chain, without caps; N, C: chain ends. Non-standard residues stand in square brackets, D forms with d. Residues, ends and D or L forms follow the SMILES beside them. *: point of attachment. X1 = NC[C@@H](CC(=O)*)c1cccc(Cl)c1; Dab = NCC[C@H](N)C(=O)O; Dap = NC[C@H](N)C(=O)O
readoutName: clearance (mL/min)
Numbers only; they are read as mL/min.

Inquiry: What value of clearance has been recorded for this entry: CC(C)C[C@@H]1NC(=O)[C@@H](Cc2ccccc2)NC(=O)[C@H](CCN)NC(=O)[C@@H](NC(=O)[C@H](CN)NC(=O)[C@@H](NC(=O)C[C@H](CN)c2cccc(Cl)c2)[C@@H](C)O)CCNC(=O)[C@H]([C@@H](C)O)NC(=O)[C@H](CCN)NC(=O)[C@H](CCN)NC1=O [SPR206] (X1-T[Dap][Dab][Dab][dF]L[Dab][Dab]T; lactam 3-C (inferred))
Reply text: 78.3
